System: NCI-H838
Experiment: relative viability (nuclei count vs DMSO), 5 days (fraction); higher = more cells survive
Conditions: first compound 0.1265 µM
Measured property: relative viability
Lab note: jot down the number only; don't add units.

| Compound | relative viability |
| --- | --- |
| Cc1sc2c(c1C)C(c1ccc(Cl)cc1)=N[C@@H](CC(=O)OC(C)(C)C)c1nnc(C)n1-2 [JQ1] + CC(=O)Nc1cccc(-n2c(=O)n(C3CC3)c(=O)c3c(Nc4ccc(I)cc4F)n(C)c(=O)c(C)c32)c1 [Trametinib] (partner 0.02 µM) | 0.267 |
| Cc1sc2c(c1C)C(c1ccc(Cl)cc1)=N[C@@H](CC(=O)OC(C)(C)C)c1nnc(C)n1-2 [JQ1] + CC1(C)CCC(c2ccc(Cl)cc2)=C(CN2CCN(c3ccc(C(=O)NS(=O)(=O)c4ccc(N[C@H](CCN5CCOCC5)CSc5ccccc5)c(S(=O)(=O)C(F)(F)F)c4)cc3)CC2)C1 [Navitoclax] (partner 0.5 µM) | 0.592 |

[in] Look up relative viability for this compound: Cc1sc2c(c1C)C(c1ccc(Cl)cc1)=N[C@@H](CC(=O)OC(C)(C)C)c1nnc(C)n1-2 [JQ1] + CC(=O)c1c(C)c2cnc(Nc3ccc(N4CCNCC4)cn3)nc2n(C2CCCC2)c1=O [Palbociclib] (partner 0.5 µM)
[out] 0.194

[in] What value of measured relative viability is listed for Cc1sc2c(c1C)C(c1ccc(Cl)cc1)=N[C@@H](CC(=O)OC(C)(C)C)c1nnc(C)n1-2 [JQ1] + C[C@]1(O)C[C@@H](c2nc(-c3ccc4ccc(-c5ccccc5)nc4c3)c3c(N)nccn32)C1 [Linsitinib] (partner 1 µM) ?
[out] 0.543

[in] What relative viability value was documented for this compound, Cc1sc2c(c1C)C(c1ccc(Cl)cc1)=N[C@@H](CC(=O)OC(C)(C)C)c1nnc(C)n1-2 [JQ1] + NC(=O)Nc1cc(-c2cccc(F)c2)sc1C(=O)N[C@H]1CCCNC1 [AZD7762] (partner 0.2 µM) ?
[out] 0.782

[in] // returns reported relative viability for input Cc1sc2c(c1C)C(c1ccc(Cl)cc1)=N[C@@H](CC(=O)OC(C)(C)C)c1nnc(C)n1-2 [JQ1] + CS(=O)(=O)CCNCc1ccc(-c2ccc3ncnc(Nc4ccc(OCc5cccc(F)c5)c(Cl)c4)c3c2)o1 [Lapatinib] (partner 2 µM)
[out] 0.462

###

In this section we review reported relative viability values for a set of compounds.
System: UMC-11
Assay: relative viability (nuclei count vs DMSO), 5 days (fraction); higher = more cells survive
Conditions: first compound 0.000632 µM
Lab note: write the figure by itself, no unit.

// known answers, use as guide
| Compound | relative viability |
| --- | --- |
| CC(=O)O[C@@]12CO[C@@H]1C[C@H](O)[C@@]1(C)C(=O)[C@H](O)C3=C(C)[C@@H](OC(=O)[C@H](O)[C@@H](NC(=O)OC(C)(C)C)c4ccccc4)C[C@@](O)([C@@H](OC(=O)c4ccccc4)[C@H]21)C3(C)C [Docetaxel] + CC(C)C[C@H](NC(=O)[C@H](Cc1ccccc1)NC(=O)c1cnccn1)B(O)O [Bortezomib] (partner 0.002 µM) | 0.763 |
| CC(=O)O[C@@]12CO[C@@H]1C[C@H](O)[C@@]1(C)C(=O)[C@H](O)C3=C(C)[C@@H](OC(=O)[C@H](O)[C@@H](NC(=O)OC(C)(C)C)c4ccccc4)C[C@@](O)([C@@H](OC(=O)c4ccccc4)[C@H]21)C3(C)C [Docetaxel] + O=C(CCCCCCC(=O)Nc1ccccc1)NO [Vorinostat] (partner 1 µM) | 0.287 |
| CC(=O)O[C@@]12CO[C@@H]1C[C@H](O)[C@@]1(C)C(=O)[C@H](O)C3=C(C)[C@@H](OC(=O)[C@H](O)[C@@H](NC(=O)OC(C)(C)C)c4ccccc4)C[C@@](O)([C@@H](OC(=O)c4ccccc4)[C@H]21)C3(C)C [Docetaxel] + Cc1cc(Nc2cc(N3CCN(C)CC3)nc(Sc3ccc(NC(=O)C4CC4)cc3)n2)n[nH]1 [Tozasertib] (partner 0.1 µM) | 0.193 |
| CC(=O)O[C@@]12CO[C@@H]1C[C@H](O)[C@@]1(C)C(=O)[C@H](O)C3=C(C)[C@@H](OC(=O)[C@H](O)[C@@H](NC(=O)OC(C)(C)C)c4ccccc4)C[C@@](O)([C@@H](OC(=O)c4ccccc4)[C@H]21)C3(C)C [Docetaxel] + C[C@]1(O)C[C@@H](c2nc(-c3ccc4ccc(-c5ccccc5)nc4c3)c3c(N)nccn32)C1 [Linsitinib] (partner 1 µM) | 0.905 |
| CC(=O)O[C@@]12CO[C@@H]1C[C@H](O)[C@@]1(C)C(=O)[C@H](O)C3=C(C)[C@@H](OC(=O)[C@H](O)[C@@H](NC(=O)OC(C)(C)C)c4ccccc4)C[C@@](O)([C@@H](OC(=O)c4ccccc4)[C@H]21)C3(C)C [Docetaxel] + N=C(N)NC(=N)NCCc1ccccc1 [Phenformin] (partner 250 µM) | 0.332 |

[in] relative viability for CC(=O)O[C@@]12CO[C@@H]1C[C@H](O)[C@@]1(C)C(=O)[C@H](O)C3=C(C)[C@@H](OC(=O)[C@H](O)[C@@H](NC(=O)OC(C)(C)C)c4ccccc4)C[C@@](O)([C@@H](OC(=O)c4ccccc4)[C@H]21)C3(C)C [Docetaxel] + CS(=O)(=O)N1CCN(Cc2cc3nc(-c4cccc5[nH]ncc45)nc(N4CCOCC4)c3s2)CC1 [Pictilisib] (partner 1 µM) ?
[out] 0.835

[in] Data request, read-out relative viability, for CC(=O)O[C@@]12CO[C@@H]1C[C@H](O)[C@@]1(C)C(=O)[C@H](O)C3=C(C)[C@@H](OC(=O)[C@H](O)[C@@H](NC(=O)OC(C)(C)C)c4ccccc4)C[C@@](O)([C@@H](OC(=O)c4ccccc4)[C@H]21)C3(C)C [Docetaxel] + COc1cccc2cc(-c3nc([C@H]4CC[C@H](C(=O)O)CC4)n4ncnc(N)c34)[nH]c12 [OSI-027] (partner 0.5 µM)
[out] 0.469
